Experimental Target: 5-hydroxytryptamine receptor 6 (Homo sapiens, UniProt P50406)
Sequence (P50406 whole entry): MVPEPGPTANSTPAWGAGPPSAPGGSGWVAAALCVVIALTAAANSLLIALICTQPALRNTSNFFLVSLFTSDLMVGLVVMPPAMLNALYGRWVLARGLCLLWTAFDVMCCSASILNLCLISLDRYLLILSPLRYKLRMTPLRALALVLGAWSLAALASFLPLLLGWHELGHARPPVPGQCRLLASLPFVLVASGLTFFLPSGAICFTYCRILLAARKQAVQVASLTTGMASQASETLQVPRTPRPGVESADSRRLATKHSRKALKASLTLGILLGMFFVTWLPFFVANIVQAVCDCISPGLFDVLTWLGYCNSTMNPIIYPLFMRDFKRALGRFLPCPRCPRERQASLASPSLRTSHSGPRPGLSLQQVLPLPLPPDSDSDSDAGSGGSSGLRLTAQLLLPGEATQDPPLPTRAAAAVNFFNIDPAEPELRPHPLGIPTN
Readout: Ki

The reported value for CC(=O)c1ccc(OCc2ccc(Oc3cc(-c4nn[nH]n4)ccn3)cc2)c(C)c1O in terms of Ki is > 1.79 µM

----------
Experimental Target: Metabotropic glutamate receptor 3 (Homo sapiens)
Sequence (Q14832 whole entry): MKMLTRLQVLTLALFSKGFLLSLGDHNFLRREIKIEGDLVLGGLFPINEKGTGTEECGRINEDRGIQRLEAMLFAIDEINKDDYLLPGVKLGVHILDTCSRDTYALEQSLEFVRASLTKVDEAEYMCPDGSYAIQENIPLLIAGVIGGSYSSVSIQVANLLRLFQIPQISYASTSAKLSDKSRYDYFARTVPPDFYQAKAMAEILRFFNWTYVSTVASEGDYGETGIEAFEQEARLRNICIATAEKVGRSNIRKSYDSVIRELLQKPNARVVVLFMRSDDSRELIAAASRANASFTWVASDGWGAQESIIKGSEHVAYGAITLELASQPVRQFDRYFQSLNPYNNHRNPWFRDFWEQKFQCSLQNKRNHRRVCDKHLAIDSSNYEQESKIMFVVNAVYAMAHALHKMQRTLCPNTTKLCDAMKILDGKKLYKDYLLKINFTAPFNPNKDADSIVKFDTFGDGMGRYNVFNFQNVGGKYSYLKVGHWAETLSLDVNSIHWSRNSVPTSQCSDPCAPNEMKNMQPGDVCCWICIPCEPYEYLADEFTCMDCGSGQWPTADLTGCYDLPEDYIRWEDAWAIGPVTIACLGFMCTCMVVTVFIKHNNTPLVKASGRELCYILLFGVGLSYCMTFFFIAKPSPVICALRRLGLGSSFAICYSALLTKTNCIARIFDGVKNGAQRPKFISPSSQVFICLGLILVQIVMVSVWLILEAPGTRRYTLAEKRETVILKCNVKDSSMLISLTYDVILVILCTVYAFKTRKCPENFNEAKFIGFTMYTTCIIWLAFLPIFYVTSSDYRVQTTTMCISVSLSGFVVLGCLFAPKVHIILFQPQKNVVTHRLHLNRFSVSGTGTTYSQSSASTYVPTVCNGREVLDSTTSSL
Protocol Text: Agonist activity at recombinant human mGlu3 expressed in hamster AV12 cells expressing EAAT1 assessed as increase in intracellular calcium level measured after 24 hrs by FLIPR assay
Type: functional, cell-based
pEC50: −log10 of the molar value.
Readout: pEC50

The reported value for CC(=O)c1ccc(OCc2ccc(Oc3cc(-c4nn[nH]n4)ccn3)cc2)c(C)c1O in terms of pEC50 is < 4.60

Just for reference, ChEMBL document CHEMBL3872247 is where these values come from.
